- measurement-target: free FIXa (activated Factor IX) (UniProt P00740 47-191; P00740 227-461)
- method-description: BLI
Each entry below lists one item and its recorded Kd value.

{"columns": ["binder", "Kd"],
 "data": [
  ["BIIB-9-415 (antibody, V domains shown) VH: QVQLVQSGAEVKKPGASVKVSCKASGYTFTSYYMHWVRQAPGQGLEWMGIINPSGGSTSYAQKFQGRVTMTRDTSTSTVYMELSSLRSEDTAVYYCARDGLSSGYYWDNWGQGTLVTVSS VL: DIQMTQSPSSVSASVGDRVTITCRASQGIDSWLAWYQQKPGKAPKLLIYAASSLQSGVPSRFSGSGSGTDFTLTISSLQPEDFATYYCQQGDAFPFTFGGGTKVEIK", "14.4 nM"],
  ["BIIB-9-581 (antibody, V domains shown) VH: QVQLVQSGAEVKKPGASVKVSCKASGYTFTSYYMHWVRQAPGQGLEWMGIINPSGGSTSYAQKFQGRVTMTRDTSTSTVYMELSSLRSEDTAVYYCARDPLYYREGYVFDYWGQGTLVTVSS VL: DIQMTQSPSSLSASVGDRVTITCRASQSISSYLNWYQQKPGKAPKLLIYAASSLQSGVPSRFSGSGSGTDFTLTISSLQPEDFATYYCQQSDLFPFTFGGGTKVEIK", "12.9 nM"],
  ["BIIB-9-616 (antibody, V domains shown) VH: QVQLVQSGAEVKKPGASVKVSCKASGYTFTSYYMHWVRQAPGQGLEWMGIINPSGGSTSYAQKFQGRVTMTRDTSTSTVYMELSSLRSEDTAVYYCARGGSKYFFDLWGRGTLVTVSS VL: EIVMTQSPATLSVSPGERATLSCRASQSVSSSLAWYQQKPGQAPRLLIYGASTRATGIPARFSGSGSGTEFTLTISSLQSEDFAVYYCQQADNFPFTFGGGTKVEIK", "16.8 nM"],
  ["BIIB-9-461 (antibody, V domains shown) VH: QVQLVQSGAEVKKPGASVKVSCKASGYTFTSYYMHWVRQAPGQGLEWMGIINPSGGSTSYAQKFQGRVTMTRDTSTSTVYMELSSLRSEDTAVYYCARGPTDSSGYLDMDVWGKGTTVTVSS VL: EIVMTQSPATLSVSPGERATLSCRASQSVSSSLAWYQQKPGQAPRLLIYGASTRATGIPARFSGSGSGTEFTLTISSLQSEDFAVYYCQQHHHWPPTFGGGTKVEIK", "43.1 nM"],
  ["BIIB-9-470 (antibody, V domains shown) VH: EVQLVESGGGLVQPGGSLRLSCAASGFTFSSYWMSWVRQAPGKGLEWVANIKQDGSEKYYVDSVKGRFTISRDNAKNSLYLQMNSLRAEDTAVYYCARDAGIAWALDYWGQGTLVTVS VL: DIQMTQSPSTLSASVGDRVTITCRASQSISSWLAWYQQKPGKAPKLLIYKASSLESGVPSRFSGSGSGTEFTLTISSLQPDDFATYYCQHPHSWTFGGGTKVEIK", "19.6 nM"],
  ["BIIB-9-1284 (antibody, V domains shown) VH: QVQLVQSGAEVKKPGASVKVSCKASGYTFTSYYMVWVRQAPGQGLEWMGIINPSGGSTSYAQKFQGRVTMTRDTSTSTVYMELSSLRSEDTAVYYCARVPTYRYSYLAFDIWGQGTMVTVSS VL: EIVLTQSPATLSVSPGERATLSCRASQSVGSNLAWYQQKPGQAPRLLIYGASTRATGIPARFSGSGSGTEFTLTISSLQSEDFAVYYCQQHNHLPITFGGGTKVEIK", "41.2 nM"],
  ["BIIB-9-619 (antibody, V domains shown) VH: QVQLVQSGAEVKKPGASVKVSCKASGYTFTSYYMHWVRQAPGQGLEWMGIINPSGGSTSYAQKFQGRVTMTRDTSTSTVYMELSSLRSEDTAVYYCARDGPRVSDYYMDVWGKGTTVTVSS VL: EIVLTQSPATLSLSPGERATLSCRASQSVSSYLAWYQQKPGQAPRLLIYDASNRATGIPARFSGSGSGTDFTLTISSLEPEDFAVYYCQQRDNWPFTFGGGTKVEIK", "11.9 nM"],
  ["BIIB-9-479 (antibody, V domains shown) VH: QVQLQESGPGLVKPSETLSLTCTVSGGSISSYYWSWIRQPPGKGLEWIGSIYYSGSTNYNPSLKSRVTISVDTSKNQFSLKLSSVTAADTAVYYCAREHYGDYPLFDIWGQGTMVTVSS VL: DIQMTQSPSTLSASVGDRVTITCRASQSISSWLAWYQQKPGKAPKLLIYKASSLESGVPSRFSGSGSGTEFTLTISSLQPDDFATYYCQQYRILSPTFGGGTKVEIK", "58.3 nM"],
  ["BIIB-9-622 (antibody, V domains shown) VH: QVQLVQSGAEVKKPGASVKVSCKASGYTFTSYYMHWVRQAPGQGLEWMGIINPSGGSTSYAQKFQGRVTMTRDTSTSTVYMELSSLRSEDTAVYYCARDGATTVSYLSFDIWGQGTMVTVSS VL: EIVMTQSPATLSVSPGERATLSCRASQSVSSSLAWYQQKPGQAPRLLIYGASTRATGIPARFSGSGSGTEFTLTISSLQSEDFAVYYCQQHSTWPPTFGGGTKVEIK", "18 nM"],
  ["BIIB-9-612 (antibody, V domains shown) VH: QVQLVQSGAEVKKPGASVKVSCKASGYTFTSYYMHWVRQAPGQGLEWMGIINPSGGSTSYAQKFQGRVTMTRDTSTSTVYMELSSLRSEDTAVYYCARDAGYHWYGMDVWGQGTTVTVSS VL: EIVLTQSPATLSLSPGERATLSCRASQSVSRYLAWYQQKPGQAPRLLIYDASNRATGIPARFSGSGSGTDFTLTISSLEPEDFAVYYCQQSSLFPLTFGGGTKVEIK", "14 nM"]
]}
